Data origin: ChEMBL document CHEMBL1961873

Molecular target: Tyrosine-protein kinase BTK (Homo sapiens);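 also: values are mean percent inhibition of BTK across replicate measurements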
Conditions: at 1 µM
Would you kindly list inhibition for each of these compounds?
Numbers only, in %.

The value of inhibition measured for the compound Nc1ncnc2occ(-c3ccc(NC(=O)Nc4cc(C(F)(F)F)cc(C(F)(F)F)c4)cc3)c12 turned out to be 9.01

Please supply inhibition for each of the following items, keeping them in order.
1. CCn1c(-c2nonc2N)nc2c(C#CC(C)(C)O)nc(CN3CCCC3)cc21
2. O=C1NC(=O)C(N2CCc3ccccc32)=C1c1ccc(Cl)cc1
3. Cc1nn(C)c2cc(N(C)c3ccnc(Nc4cccc(S(N)(=O)=O)c4)n3)ccc12
4. CC1=C(C(=O)Nc2ccc3[nH]ncc3c2)C(c2ccc(Cl)c(Cl)c2)CC(=O)N1 (stereo not given)
5. CS(=O)(=O)CCNCc1ccc(-c2ccc3ncnc(Nc4ccc(OCc5ccccc5)c(Cl)c4)c3c2)o1
6. Nc1nc(-c2ccccn2)c(-c2ccc3ncccc3n2)s1

[-1.15, 0.58, 6.74, 3.13, 0.13, 0.04]

Please supply inhibition for each of the following items, keeping them in order.
1. COC(=O)Nc1nc2cc(Oc3cccc(NC(=O)Nc4cc(C(F)(F)F)ccc4F)c3)ccc2[nH]1
2. COc1ccc2cc(-c3c(-c4ccncc4)nc(-c4ccc([S+](C)[O-])cc4)n3C)ccc2c1 (stereo not given)
3. Cc1cc(O)cc(C)c1/C=C/c1cncc(-c2nn[nH]n2)c1
4. Cc1ccc(C(=O)NC2CCCCC2)cc1-c1ccc(C(=O)NCC2CC2)cc1
5. COc1cccc(-n2ncc3c(N/N=C/c4cccc(F)c4)ncnc32)c1

1: -0.18; 2: 1.4; 3: 7.14; 4: 3.37; 5: -4.52

Please supply inhibition for each of the following items, keeping them in order.
1. CCCN1CCC(Oc2cc(Nc3nc(Nc4cccc(F)c4C(N)=O)c4cc[nH]c4n3)c(OC)cc2Cl)CC1
2. Nc1nc(-c2ccc3c(c2)C(=Cc2cc(Br)c(O)c(Br)c2)C(=O)N3)cs1
3. COc1cc(C=NNc2ncnc3c2cnn3-c2ccccc2)ccc1O

1. 0.8
2. -0.23
3. 2.34
